subject_of_test: tartrate-resistant acid phosphatase (TRAP) (Homo sapiens)
Sequence (P13686 22-325): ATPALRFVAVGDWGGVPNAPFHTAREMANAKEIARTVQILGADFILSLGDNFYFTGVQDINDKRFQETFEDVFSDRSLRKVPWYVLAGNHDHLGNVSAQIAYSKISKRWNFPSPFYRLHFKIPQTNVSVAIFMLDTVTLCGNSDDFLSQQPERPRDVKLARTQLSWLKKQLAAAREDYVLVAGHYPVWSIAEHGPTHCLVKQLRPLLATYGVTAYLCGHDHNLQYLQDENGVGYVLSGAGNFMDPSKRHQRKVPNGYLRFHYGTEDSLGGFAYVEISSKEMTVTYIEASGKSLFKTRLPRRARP
experimental_details: Surface plasmon resonance (SPR) affinity of peptides and peptide-functionalized polymers for TRAP, binding-curve fit
condition_info: read-out: affinity for TRAP measured with SPR
pKd: −log10 of the molar value. Ends that are not written are not given here.

substance: H-TPLSYLKGLVTVG [TBP]
pKd: 3.10

* * *

subject_of_test: tartrate-resistant acid phosphatase (TRAP) (Homo sapiens)
Sequence (P13686 22-325): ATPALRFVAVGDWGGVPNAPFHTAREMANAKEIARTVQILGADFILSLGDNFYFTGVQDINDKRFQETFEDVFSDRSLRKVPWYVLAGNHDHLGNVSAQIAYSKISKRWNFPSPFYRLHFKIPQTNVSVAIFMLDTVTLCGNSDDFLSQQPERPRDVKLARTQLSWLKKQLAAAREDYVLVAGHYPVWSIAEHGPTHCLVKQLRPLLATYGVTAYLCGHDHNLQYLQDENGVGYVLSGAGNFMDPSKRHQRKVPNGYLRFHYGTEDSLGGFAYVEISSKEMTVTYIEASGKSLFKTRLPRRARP
experimental_details: Surface plasmon resonance (SPR) affinity of peptides and peptide-functionalized polymers for TRAP, binding-curve fit
condition_info: TRAP-functionalized CM5 chip, n = 2, Ave. ± StDev, read-out: KD
pKd: −log10 of the molar value.
Measured pKd accompanies every entry in the list below.
measured_quantity: pKd

substance: 10% peptide-functionalized polymer (TPLSYLKGLVTVG)
experimental_result: 4.90
//
substance: 20% peptide-functionalized polymer (TPLSYLKGLVTVG)
experimental_result: 5.12

Just for reference, patent US10195284B2 is where these values come from.
